Tested on: Leptospira interrogans serovar Autumnalis
protocolSummary: Antibacterial activity against Leptospira interrogans serovar Autumnalis N2 at 250 ug/mL after 2 hrs by micro dilution assay
Assay type: functional
Activity calls are given as the source filed them. The rule behind the calls is not given here.
valueType: Activity

// below: answered molecules
> print(dat)
                    structuresmiles  valuetype       val
1   CC1(C)CC(=O)c2c(cc3ccccc3c2O)O1   Activity  inactive
2        CC1=C2C(=O)ON=C2CC(C)(C)O1   Activity  inactive
3  CC1(C)CC2=NOC(=O)C2=C(c2cccs2)O1   Activity    Active
4  CC1(C)CC2=NOC(=O)C2=C(c2ccco2)O1   Activity  inactive

For this molecule ( `COc1cc(OC)cc(C2=C3C(=O)ON=C3CC(C)(C)O2)c1` ), measured Activity is inactive

For this molecule ( `CC1(C)CC(O)=C2C(=O)c3ccccc3C=C2O1` ), measured Activity is Active
